Source of measurements: patent US20230357429A1

Target: T1, TBD-11 (HC R98A)
T1 construct: Fab; also called HC R98A mutant
T1 sequence (VH, as listed by the source, chain 1 of 2): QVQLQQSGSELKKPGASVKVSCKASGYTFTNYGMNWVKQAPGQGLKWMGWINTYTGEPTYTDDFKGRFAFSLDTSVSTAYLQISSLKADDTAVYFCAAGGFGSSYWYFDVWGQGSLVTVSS
T1 sequence (VL, as listed by the source, chain 2 of 2): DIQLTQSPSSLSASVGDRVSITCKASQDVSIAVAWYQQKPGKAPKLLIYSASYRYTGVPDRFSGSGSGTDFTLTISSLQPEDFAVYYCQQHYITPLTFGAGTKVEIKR
Assay: competition ELISA, peptide vs Fab binding to captured biotin-TROP2
Where no end group is shown, it is not given here.
experimental-endpoint: IC50 (µM)

Form: binder = VDFCKIYAWPICGS (cysteine pairing not given here; also: biotinylated, site not given here) [Peptide-4] ; IC50 = 3.24

a. IDFCAVYKWPVCQV (cysteine pairing not given here; also: biotinylated (site not given here)) [Peptide-2]
b. IDFCMLYNWPICAG (cysteine pairing not given here; also: biotinylated, site not given here) [Peptide-3]
c. MDFCQIYDWPICRL (cysteine pairing not given here; also: biotinylated (site not given here)) [Peptide-18]
d. EDFCKLYNWPICYQ (cysteine pairing not given here; also: biotinylated, site not given here) [Peptide-7]
(Q) Let's sort these by IC50, smallest first. Go ahead? List each label, following the requested order.
(A) d, b, c, a
(d: 1 µM, b: 1.48 µM, c: 3.96 µM, a: 5.85 µM)
